Tested on: BT-549 breast
Experiment: NCI-60 one-dose screen, 48 h (100 = growth as untreated, 0 = no growth, -100 = all killed)
Conditions: 10 µM
The panel holds about 83,000 compounds, 20% with a hit somewhere; the sample as a whole holds those more often.
# Lookup of reported growth keyed by entry
quantity measured: growth (%)

INSERT INTO results (molecule, quantity_measured, measured_result) VALUES
  ('O=C(O)C1(Br)CC12c1ccccc1-c1ccccc12 (centres undefined)', 'growth', 94.9),
  ('O=C(CCc1ccco1)NC1CCN(CC2(c3ccc(Cl)cc3)CCC2)CC1', 'growth', 12.4),
  ('CCC(C)(C)O', 'growth', 110),
  ('N#CC1=C(N)Oc2cc3c(cc2C1c1cccs1)OCO3 (centres undefined)', 'growth', 44.6),
  ('Oc1ccc(Br)cc1CN1CCN(Cc2ccc(Cl)cc2)CC1', 'growth', 86.3),
  ('C/C(=N/OC(=O)N(C)C)c1ccc(Cl)cc1Cl', 'growth', 97),
  ('NS(=O)(=O)c1nc[nH]c1[N+](=O)[O-]', 'growth', 96.7),
  ('C=C=[CH][Sn]([c]1ccccc1)([c]1ccccc1)[c]1ccccc1', 'growth', -34.9),
  ('O=C(O)c1cccc(CCl)c1', 'growth', 96.6),
  ('CC(C)Nc1ccc(Nc2ccccc2)cc1', 'growth', 22.8),
  ('CC1(C)N=C(N)N=C(N)N1c1cccc(C(=O)Nc2cccc(S(=O)(=O)F)c2)c1', 'growth', 107),
  ('C=CCN1C(=O)C(CC)(CCC(C)C)C(=O)NC1=S (centres undefined)', 'growth', 106),
  ('Cc1ccc2oc(=O)c3c(c2c1)OC(N)=C(C#N)C3c1ccco1 (centres undefined)', 'growth', 98.8),
  ('CCC(CC)(c1ccccc1)C(OC(N)=O)c1ccccc1 (centres undefined)', 'growth', 110),
  ('C[C@@H]1CC[C@@H]2[C@@H]1[C@H](OC(=O)/C=C/C1CCCCC1)[C@]1(C3CCCCC3)C[C@@H](OC(=O)CO)[C@@]2(C)O1', 'growth', 0.314),
  ('CCC(/C=C(C)/C=C/C(=O)c1c(O)c(-c2ccc(O)cc2)c[nH]c1=O)CO (centres undefined)', 'growth', 78.8),
  ('C/C(=C\C(=O)O[C@H]1[C@@H]2[C@H](C)CC[C@H]2[C@]2(C)O[C@@]1(C1CCCCC1)C[C@H]2OC(=O)CO)c1ccccc1', 'growth', -6.37),
  ('CCOc1cc(/C=N\Nc2nnc(C)n2N)c(C)cc1N(CCCl)CCCl', 'growth', 17),
  ('CC(C)[C@]12O[C@H]1[C@@H]1O[C@]13[C@]1(O[C@H]1C[C@H]1C4=C(CC[C@@]13C)C(=O)OC4)[C@@H]2OC(=O)OC(C)(C)C', 'growth', -12.2);
